Tested on: biotinyl-Val-oxazolone
Measurement description: self-aminoacylation, catalytic enhancement (BVO) (fold over background); higher = more active; k-Seq, kA / k0A0; sequences stand for … in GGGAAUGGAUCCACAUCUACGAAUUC…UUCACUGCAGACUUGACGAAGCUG
Fewer inactive variants are shown than the library holds.
self-aminoacylation: recorded values

Residues | self-aminoacylation
AUGCACCGAGGUCAUCGGGUG [Fam2.2 aminoacylation ribozyme variant] | 3.66
ACUACCCUGGUCAUUGAGUGA [Fam2.1 aminoacylation ribozyme variant] | 4.05
CUACUUCAAUCAUUCGGUCUG [Fam1A.1 aminoacylation ribozyme variant] | 0.992
CUACUUAAAACAAACGGUCUG [Fam1A.1 aminoacylation ribozyme variant] | 0.895

---

System: biotinyl-Phe-oxazolone
Measurement description: self-aminoacylation, catalytic enhancement (BFO) (fold over background); higher = more active; k-Seq, kA / k0A0; sequences stand for … in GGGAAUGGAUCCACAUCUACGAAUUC…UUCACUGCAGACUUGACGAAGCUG
Fewer inactive variants are shown than the library holds.

Residues | self-aminoacylation
AAGUGUACUAAUAGUCGCAAG [Fam3.1 aminoacylation ribozyme variant] | 1.74
AUUCACCUUGGUCAUCGGGAG [Fam2.2 aminoacylation ribozyme variant] | 0.73
AUUAACGUAGGUCAUCGGGUG [Fam2.2 aminoacylation ribozyme variant] | 42.1
AAGUCUGCUAAUAGUCGAAAG [Fam3.1 aminoacylation ribozyme variant] | 16.8
GUACUUCAAACAAUCUGUCUG [Fam1A.1 aminoacylation ribozyme variant] | 4.1
AAGUUUGCUAACAGCCGCAAG [Fam3.1 aminoacylation ribozyme variant] | 3.09
CCACACUUGAAGCAAUCGGUC [Fam1B.1 aminoacylation ribozyme variant] | 0.778
CCACACUCCAAGCAAUAGGUC [Fam1B.1 aminoacylation ribozyme variant] | 1.06
AAGUUUGGUAAUAGUCGCAAU [Fam3.1 aminoacylation ribozyme variant] | 3.13
ACGUUUGCUAAUAGGCGCAAG [Fam3.1 aminoacylation ribozyme variant] | 5.88
AUUCACCUAGUUCAUCCGGUG [Fam2.2 aminoacylation ribozyme variant] | 21.9
AAGUUUGCUAAUAGUCGUUAG [Fam3.1 aminoacylation ribozyme variant] | 2.27
AUUCAACUAGGUCAUAGGGUG [Fam2.2 aminoacylation ribozyme variant] | 9.13
AGCCACCUAGGUCAUCGGGUG [Fam2.2 aminoacylation ribozyme variant] | 81.6
CCACACUUCAGGUAAUCGGUC [Fam1B.1 aminoacylation ribozyme variant] | 1.07
AUUCGCCUAGGUCAUGGGGUG [Fam2.2 aminoacylation ribozyme variant] | 31.7
AUUCACCUAGAUCAUCUGGUG [Fam2.2 aminoacylation ribozyme variant] | 14.8
UAGUUUGCUAGUAGUCGCAAG [Fam3.1 aminoacylation ribozyme variant] | 1.53
UUUACCCUGGUCUUCGAGUGA [Fam2.1 aminoacylation ribozyme variant] | 13.9
ACACACUUCAAGCAAUCGGGC [Fam1B.1 aminoacylation ribozyme variant] | 2.02
AAGUUUACUAAUAGUCGAAAG [Fam3.1 aminoacylation ribozyme variant] | 2.51
CUACUUCAAACAAUUGUUCUG [Fam1A.1 aminoacylation ribozyme variant] | 0.673
AUUCACCAAGGCCAUCGGGUG [Fam2.2 aminoacylation ribozyme variant] | 30.1
AUUCACCUACGUCAUCGGGUC [Fam2.2 aminoacylation ribozyme variant] | 4.31
AAGUUUACAAAUAGUCGCAAG [Fam3.1 aminoacylation ribozyme variant] | 2.51
CUACUUGAAACUAUCGGUCUG [Fam1A.1 aminoacylation ribozyme variant] | 0.599
CCACACUUCAAACAACCGGUC [Fam1B.1 aminoacylation ribozyme variant] | 2.26
CCUCUUCAAACAAUCGGUCUG [Fam1A.1 aminoacylation ribozyme variant] | 85.8
AUUAACCUGAUCAUCGAGUGA [Fam2.1 aminoacylation ribozyme variant] | 41.3
